# measuredOn: Sodium channel protein type 10 subunit alpha (Homo sapiens, UniProt Q9Y5Y9)
# Sequence (Q9Y5Y9 whole entry): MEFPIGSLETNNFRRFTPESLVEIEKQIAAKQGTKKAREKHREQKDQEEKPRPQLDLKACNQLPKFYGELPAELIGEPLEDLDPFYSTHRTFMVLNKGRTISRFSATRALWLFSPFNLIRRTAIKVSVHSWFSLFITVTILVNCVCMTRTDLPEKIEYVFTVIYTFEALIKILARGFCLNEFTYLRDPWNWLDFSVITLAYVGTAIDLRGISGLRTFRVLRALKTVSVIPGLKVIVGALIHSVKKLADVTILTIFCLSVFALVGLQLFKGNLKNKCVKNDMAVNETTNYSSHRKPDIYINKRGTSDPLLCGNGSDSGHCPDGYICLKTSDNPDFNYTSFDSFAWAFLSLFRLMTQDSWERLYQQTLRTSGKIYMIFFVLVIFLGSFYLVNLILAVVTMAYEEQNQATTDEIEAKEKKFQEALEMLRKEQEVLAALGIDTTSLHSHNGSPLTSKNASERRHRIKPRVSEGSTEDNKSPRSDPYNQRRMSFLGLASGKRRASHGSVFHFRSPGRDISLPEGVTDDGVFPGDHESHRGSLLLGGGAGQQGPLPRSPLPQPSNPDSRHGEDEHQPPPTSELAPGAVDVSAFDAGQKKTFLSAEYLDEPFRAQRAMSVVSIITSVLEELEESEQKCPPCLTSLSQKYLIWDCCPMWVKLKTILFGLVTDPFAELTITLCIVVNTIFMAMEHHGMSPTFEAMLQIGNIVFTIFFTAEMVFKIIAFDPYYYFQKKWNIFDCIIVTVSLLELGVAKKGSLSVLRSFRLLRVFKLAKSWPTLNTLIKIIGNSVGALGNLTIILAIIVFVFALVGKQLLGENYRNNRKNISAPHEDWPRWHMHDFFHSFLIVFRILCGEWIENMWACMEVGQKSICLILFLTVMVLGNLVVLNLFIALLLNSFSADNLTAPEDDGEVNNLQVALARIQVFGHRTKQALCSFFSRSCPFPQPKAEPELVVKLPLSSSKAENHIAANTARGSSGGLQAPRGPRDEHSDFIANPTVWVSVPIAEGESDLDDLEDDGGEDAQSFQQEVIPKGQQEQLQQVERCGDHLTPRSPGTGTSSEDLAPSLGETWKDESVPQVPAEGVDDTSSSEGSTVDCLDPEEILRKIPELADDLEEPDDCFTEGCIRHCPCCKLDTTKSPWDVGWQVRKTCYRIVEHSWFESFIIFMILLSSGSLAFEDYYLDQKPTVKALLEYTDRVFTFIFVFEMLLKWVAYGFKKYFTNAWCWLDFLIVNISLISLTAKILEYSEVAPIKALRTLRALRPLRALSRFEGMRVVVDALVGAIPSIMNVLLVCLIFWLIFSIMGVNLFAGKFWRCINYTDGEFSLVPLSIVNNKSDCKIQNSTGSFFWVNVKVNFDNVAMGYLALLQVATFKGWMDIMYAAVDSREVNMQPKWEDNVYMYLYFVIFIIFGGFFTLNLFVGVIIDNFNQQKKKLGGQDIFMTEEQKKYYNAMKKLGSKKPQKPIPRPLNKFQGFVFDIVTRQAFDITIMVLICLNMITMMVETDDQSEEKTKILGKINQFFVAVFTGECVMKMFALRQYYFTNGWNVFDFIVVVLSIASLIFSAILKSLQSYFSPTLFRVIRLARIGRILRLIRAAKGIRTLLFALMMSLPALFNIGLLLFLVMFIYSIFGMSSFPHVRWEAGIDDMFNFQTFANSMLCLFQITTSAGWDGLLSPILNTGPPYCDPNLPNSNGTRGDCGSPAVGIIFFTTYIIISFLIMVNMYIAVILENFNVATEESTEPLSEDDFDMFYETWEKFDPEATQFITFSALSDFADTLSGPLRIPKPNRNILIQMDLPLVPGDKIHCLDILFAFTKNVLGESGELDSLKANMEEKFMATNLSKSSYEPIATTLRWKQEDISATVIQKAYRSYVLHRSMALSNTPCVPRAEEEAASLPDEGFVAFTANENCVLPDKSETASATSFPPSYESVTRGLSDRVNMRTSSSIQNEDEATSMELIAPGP
# methodSummary: Inhibition of human recombinant Nav1.8 channel expressed in HEK293 cells by whole cell voltage clamp technique
pIC50: −log10 of the molar value.
pIC50 below 7 gives no (0); pIC50 at or above it gives yes (1).

Use these answered entries as a reference point.
{"molecule": "O=C(c1ccc(-c2ccc(Cl)cc2)o1)N1CCN(C2CCCCC2)CC1", "measuredOn": "Sodium channel protein type 10 subunit alpha (Homo sapiens, UniProt Q9Y5Y9)", "group": "no (0)"}
{"molecule": "C[C@@H](NC(=O)c1ccc(-c2ccc(Cl)cc2)o1)C(=O)N1CCN(CCCOc2ccc(C(=O)C3CC3)cc2)CC1", "measuredOn": "Sodium channel protein type 10 subunit alpha (Homo sapiens, UniProt Q9Y5Y9)", "group": "no (0)"}
{"molecule": "Nc1nnc(-c2cccc(Cl)c2Cl)c(N)n1", "measuredOn": "Sodium channel protein type 10 subunit alpha (Homo sapiens, UniProt Q9Y5Y9)", "group": "no (0)"}

Record CC(C)(C)c1ccc(-c2ccc(C(=O)N3CCN(C4CCCCC4)CC3)o2)cc1 ; criterion: pIC50 no lower than 7. Met?
yes (1)

Record Cc1cccc(C)c1OCC(C)N (stereo unspecified) ; criterion: pIC50 no lower than 7. Met?
no (0)

Record O=C(c1ccc(-c2ccc(Cl)cc2)o1)N1CCNCC1 ; criterion: pIC50 no lower than 7. Met?
no (0)

Values from ChEMBL document CHEMBL1150418
